IC50 for assorted compounds
# System under test: E. coli RNAP (Escherichia coli, UniProt P0A8T7+P0A8V2)
# Sequence (P0A8V2 whole entry): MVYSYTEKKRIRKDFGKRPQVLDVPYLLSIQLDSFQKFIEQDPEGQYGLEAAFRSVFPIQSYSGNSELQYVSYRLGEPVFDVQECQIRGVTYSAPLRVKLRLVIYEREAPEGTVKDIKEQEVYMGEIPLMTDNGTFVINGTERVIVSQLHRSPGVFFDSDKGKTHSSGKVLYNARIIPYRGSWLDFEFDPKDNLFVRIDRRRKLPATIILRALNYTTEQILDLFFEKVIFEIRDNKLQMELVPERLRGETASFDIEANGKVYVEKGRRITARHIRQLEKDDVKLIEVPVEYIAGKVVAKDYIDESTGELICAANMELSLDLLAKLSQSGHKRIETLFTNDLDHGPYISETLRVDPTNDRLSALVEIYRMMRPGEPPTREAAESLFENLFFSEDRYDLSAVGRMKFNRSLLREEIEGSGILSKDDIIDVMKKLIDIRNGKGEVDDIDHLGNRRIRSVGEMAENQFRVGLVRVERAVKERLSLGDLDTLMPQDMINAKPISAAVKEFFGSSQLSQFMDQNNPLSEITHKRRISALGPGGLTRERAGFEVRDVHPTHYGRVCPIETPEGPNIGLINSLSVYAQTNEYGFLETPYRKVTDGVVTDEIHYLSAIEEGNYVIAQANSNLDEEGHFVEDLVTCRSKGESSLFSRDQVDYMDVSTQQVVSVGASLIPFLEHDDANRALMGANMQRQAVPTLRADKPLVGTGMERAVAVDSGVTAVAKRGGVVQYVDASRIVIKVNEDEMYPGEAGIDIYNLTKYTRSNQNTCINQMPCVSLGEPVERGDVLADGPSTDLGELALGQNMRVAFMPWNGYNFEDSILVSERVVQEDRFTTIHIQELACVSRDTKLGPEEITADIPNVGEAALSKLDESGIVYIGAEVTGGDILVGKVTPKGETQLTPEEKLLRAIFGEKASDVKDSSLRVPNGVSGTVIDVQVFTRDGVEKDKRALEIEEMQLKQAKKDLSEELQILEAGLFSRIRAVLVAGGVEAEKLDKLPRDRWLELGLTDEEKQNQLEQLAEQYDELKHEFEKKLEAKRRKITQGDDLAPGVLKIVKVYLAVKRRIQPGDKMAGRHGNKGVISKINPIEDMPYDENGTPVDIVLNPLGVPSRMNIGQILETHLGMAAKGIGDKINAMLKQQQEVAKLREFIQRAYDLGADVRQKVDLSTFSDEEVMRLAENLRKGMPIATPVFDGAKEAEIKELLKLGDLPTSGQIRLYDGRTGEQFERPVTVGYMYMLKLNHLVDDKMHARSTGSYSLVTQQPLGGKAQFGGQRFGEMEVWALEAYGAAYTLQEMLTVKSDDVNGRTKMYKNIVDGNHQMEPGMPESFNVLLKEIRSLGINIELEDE
# Sequence (P0A8T7 whole entry): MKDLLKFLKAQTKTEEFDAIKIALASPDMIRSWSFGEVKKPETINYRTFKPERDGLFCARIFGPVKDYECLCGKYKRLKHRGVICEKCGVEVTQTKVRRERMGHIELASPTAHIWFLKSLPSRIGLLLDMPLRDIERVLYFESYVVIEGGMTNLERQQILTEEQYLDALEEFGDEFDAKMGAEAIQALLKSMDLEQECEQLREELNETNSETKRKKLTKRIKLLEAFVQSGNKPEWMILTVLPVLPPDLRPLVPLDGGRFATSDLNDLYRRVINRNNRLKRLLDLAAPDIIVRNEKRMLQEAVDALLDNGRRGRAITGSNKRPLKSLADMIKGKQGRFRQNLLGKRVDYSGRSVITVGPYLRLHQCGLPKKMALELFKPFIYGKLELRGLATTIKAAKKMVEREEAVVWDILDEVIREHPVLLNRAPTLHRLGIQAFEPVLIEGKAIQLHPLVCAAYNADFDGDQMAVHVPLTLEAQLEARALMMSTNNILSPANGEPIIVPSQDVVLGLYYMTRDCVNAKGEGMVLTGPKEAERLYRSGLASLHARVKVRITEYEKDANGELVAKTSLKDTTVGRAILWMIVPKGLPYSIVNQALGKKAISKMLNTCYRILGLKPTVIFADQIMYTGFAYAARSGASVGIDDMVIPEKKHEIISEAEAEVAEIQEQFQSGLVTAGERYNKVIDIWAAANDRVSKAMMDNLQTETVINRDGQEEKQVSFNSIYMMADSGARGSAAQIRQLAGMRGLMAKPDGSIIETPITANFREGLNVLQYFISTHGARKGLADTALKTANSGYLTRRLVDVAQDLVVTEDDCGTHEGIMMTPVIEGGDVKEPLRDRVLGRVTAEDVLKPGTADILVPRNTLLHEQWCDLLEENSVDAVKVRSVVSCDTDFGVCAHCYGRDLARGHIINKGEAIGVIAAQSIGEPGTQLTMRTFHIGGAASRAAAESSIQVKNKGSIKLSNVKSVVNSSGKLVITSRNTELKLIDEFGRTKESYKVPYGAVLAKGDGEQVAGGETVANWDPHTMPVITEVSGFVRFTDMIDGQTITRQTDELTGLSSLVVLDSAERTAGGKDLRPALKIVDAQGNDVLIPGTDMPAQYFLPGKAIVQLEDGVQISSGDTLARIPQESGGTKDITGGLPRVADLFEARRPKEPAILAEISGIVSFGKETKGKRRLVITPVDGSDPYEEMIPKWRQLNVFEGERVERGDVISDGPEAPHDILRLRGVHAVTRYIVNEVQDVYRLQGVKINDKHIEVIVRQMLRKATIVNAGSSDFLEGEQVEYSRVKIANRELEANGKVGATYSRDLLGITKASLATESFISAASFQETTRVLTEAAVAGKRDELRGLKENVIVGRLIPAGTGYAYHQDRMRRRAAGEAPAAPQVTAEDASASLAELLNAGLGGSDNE
# Sequence (P0A7Z4 whole entry partner): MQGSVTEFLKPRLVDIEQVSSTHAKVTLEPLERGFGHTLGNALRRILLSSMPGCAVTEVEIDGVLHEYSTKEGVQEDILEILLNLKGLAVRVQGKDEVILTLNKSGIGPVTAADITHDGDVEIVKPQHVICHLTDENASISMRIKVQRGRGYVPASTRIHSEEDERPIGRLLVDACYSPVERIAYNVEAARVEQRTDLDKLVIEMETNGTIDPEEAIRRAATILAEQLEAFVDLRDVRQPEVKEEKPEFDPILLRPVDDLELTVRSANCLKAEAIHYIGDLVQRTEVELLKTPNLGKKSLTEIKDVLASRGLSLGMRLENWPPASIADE
# Procedure details: High throughput in vitro transcription (RNAP) assay
# Applied conditions: 60 minutes incubation

Example compounds with recorded IC50:
- Smiles str: "CC(=O)Nc1ccc(NN=C(C#N)C(=O)c2ccc(Cl)cc2)cc1"
  IC50: "> 10 µM"
- Smiles str: "Cc1c(C(=O)C(C#N)=NNc2ccc(C(C)C)cc2)sc2ccc(Cl)cc12"
  IC50: "0.5 to 10 µM"
- Smiles str: "N#CC(=NNc1cc(C(F)(F)F)cc(C(F)(F)F)c1)C(=O)c1ccccc1"
  IC50: "0.5 to 10 µM"

Here's the next entry for you.
Just so you know, measured IC50 for N#CC(=NNc1ccc(Cl)cc1)C(=O)c1ccc(Cl)cc1 came out at 0.5 to 10 µM
